These data points were gathered from ChEMBL document CHEMBL6127107.

For each of the compounds below, state its MIC.
Test system: Staphylococcus aureus
Test description: Antimicrobial activity against methicillin-resistant Staphylococcus aureus 003
Format: functional

Prompt: Entry `CC1(C)CC[C@]2(C(=O)O[C@@H]3O[C@H](CO)[C@H](O)[C@H](O)[C@H]3O)CC[C@]3(C)C(=CC[C@@H]4[C@@]5(C)CC[C@H](O[C@@H]6O[C@H](C(=O)O)[C@@H](O)[C@H](O)[C@H]6O)C(C)(C)[C@@H]5CC[C@]43C)[C@@H]2C1` : reported MIC = ?
Response: > 512 µg/mL

Prompt: Next: `CC(=O)O[C@H]1CC[C@]2(C)[C@H]3CC=C4[C@@H]5CC(C)(C)CC[C@]5(C(=O)N5CCCCC5)CC[C@@]4(C)[C@]3(C)CC[C@H]2C1(C)C`
Response: > 64 µg/mL

----------
Test description: Selectivity index, ratio of HC50 for hemolytic activity against Mianyang red blood cells (unknown origin) to MIC for antimicrobial activity against methicillin resistant Staphylococcus aureus 003
Assay type: toxicity, cell-based, RBC
Protocol conditions: read-out: Selectivity Index
Quantity name: selectivity ratio
Give your answer as a number; write no unit.

Prompt: Entry `CC(=O)O[C@H]1CC[C@]2(C)[C@H]3CC=C4[C@@H]5CC(C)(C)CC[C@]5(C(=O)NCCCN)CC[C@@]4(C)[C@]3(C)CC[C@H]2C1(C)C` : reported selectivity ratio = ?
Response: 39.2

Prompt: Next: C[C@@H]1[C@H](O)[C@@H](C)/C=C/C=C/C=C/C=C/C=C/C=C/C=C/[C@H](O[C@@H]2O[C@H](C)[C@@H](O)[C@H](N)[C@@H]2O)C[C@@H]2O[C@](O)(C[C@@H](O)C[C@@H](O)[C@H](O)CC[C@@H](O)C[C@@H](O)CC(=O)O[C@H]1C)C[C@H](O)[C@H]2C(=O)O [AMPHOTERICIN B]
Response: 29.2

Prompt: Next: `CC(=O)O[C@H]1CC[C@]2(C)[C@H]3CC=C4[C@@H]5CC(C)(C)CC[C@]5(C(=O)NCCCCNC(=N)N)CC[C@@]4(C)[C@]3(C)CC[C@H]2C1(C)C`
Response: 142

Prompt: Next: CC1(C)CC[C@]2(C(=O)O)CC[C@]3(C)C(=CC[C@@H]4[C@@]5(C)CC[C@H](OCC(O)CCCCNC(=N)N)C(C)(C)[C@@H]5CC[C@]43C)[C@@H]2C1 (stereo partly specified)
Response: 330

----------
Test description: Hemolytic activity against Mianyang red blood cells (unknown origin)
Assay type: toxicity, cell-based, RBC
For each of the compounds below, state its log10 HC50.
Recorded HC50 (log10, µg/mL)

Prompt: Entry CC1(C)CC[C@]2(C(=O)O)CC[C@]3(C)C(=CC[C@@H]4[C@@]5(C)CC[C@H](OCC(O)CCCCCCCCNC(=N)N)C(C)(C)[C@@H]5CC[C@]43C)[C@@H]2C1 (stereo not given in full) : reported log10 HC50 = ?
Response: 2.76

Prompt: Next: `CC(=O)O[C@H]1CC[C@]2(C)[C@H]3CC=C4[C@@H]5CC(C)(C)CC[C@]5(C(=O)NCCCNC(=N)N)CC[C@@]4(C)[C@]3(C)CC[C@H]2C1(C)C`
Response: 2.60

Prompt: Next: CC1(C)CC[C@]2(C(=O)O)CC[C@]3(C)C(=CC[C@@H]4[C@@]5(C)CC[C@H](OCC(O)CCCCN)C(C)(C)[C@@H]5CC[C@]43C)[C@@H]2C1 (stereo not given in full)
Response: 1.42

Prompt: Next: C[C@@H]1[C@H](O)[C@@H](C)/C=C/C=C/C=C/C=C/C=C/C=C/C=C/[C@H](O[C@@H]2O[C@H](C)[C@@H](O)[C@H](N)[C@@H]2O)C[C@@H]2O[C@](O)(C[C@@H](O)C[C@@H](O)[C@H](O)CC[C@@H](O)C[C@@H](O)CC(=O)O[C@H]1C)C[C@H](O)[C@H]2C(=O)O [AMPHOTERICIN B]
Response: 1.47

Prompt: Next: `CC(=O)O[C@H]1CC[C@]2(C)[C@H]3CC=C4[C@@H]5CC(C)(C)CC[C@]5(C(=O)NCCCCN)CC[C@@]4(C)[C@]3(C)CC[C@H]2C1(C)C`
Response: 1.82

Prompt: Next: `CC(=O)O[C@H]1CC[C@]2(C)[C@H]3CC=C4[C@@H]5CC(C)(C)CC[C@]5(C(=O)NCCCCCCCCN)CC[C@@]4(C)[C@]3(C)CC[C@H]2C1(C)C`
Response: 1.60

Prompt: Next: `CC(=O)O[C@H]1CC[C@]2(C)[C@H]3CC=C4[C@@H]5CC(C)(C)CC[C@]5(C(=O)NCCCCNC(=N)N)CC[C@@]4(C)[C@]3(C)CC[C@H]2C1(C)C`
Response: 2.45

Prompt: Next: `CC(=O)O[C@H]1CC[C@]2(C)[C@H]3CC=C4[C@@H]5CC(C)(C)CC[C@]5(C(=O)NCCCN)CC[C@@]4(C)[C@]3(C)CC[C@H]2C1(C)C`
Response: 1.89

Prompt: Next: CC1(C)CC[C@]2(C(=O)O)CC[C@]3(C)C(=CC[C@@H]4[C@@]5(C)CC[C@H](OCC(O)CCCNC(=N)N)C(C)(C)[C@@H]5CC[C@]43C)[C@@H]2C1 (stereo not given in full)
Response: 2.89

Prompt: Next: CC1(C)CC[C@]2(C(=O)O)CC[C@]3(C)C(=CC[C@@H]4[C@@]5(C)CC[C@H](OCC(O)CCCCNC(=N)N)C(C)(C)[C@@H]5CC[C@]43C)[C@@H]2C1 (stereo not given in full)
Response: 2.82

Prompt: Next: CC1(C)CC[C@]2(C(=O)O)CC[C@]3(C)C(=CC[C@@H]4[C@@]5(C)CC[C@H](OCC(O)CCCN)C(C)(C)[C@@H]5CC[C@]43C)[C@@H]2C1 (stereo not given in full)
Response: 1.51

Prompt: Next: CC1(C)CC[C@]2(C(=O)O)CC[C@]3(C)C(=CC[C@@H]4[C@@]5(C)CC[C@H](OCC(O)CCCCCCCCN)C(C)(C)[C@@H]5CC[C@]43C)[C@@H]2C1 (stereo not given in full)
Response: 1.40

Prompt: Next: `CC(=O)O[C@H]1CC[C@]2(C)[C@H]3CC=C4[C@@H]5CC(C)(C)CC[C@]5(C(=O)NCCCCCCCCNC(=N)N)CC[C@@]4(C)[C@]3(C)CC[C@H]2C1(C)C`
Response: 2.37

----------
For each of the compounds below, state its MIC.
System: Staphylococcus aureus
Test description: Antimicrobial activity against Staphylococcus aureus 31
Type: functional

Prompt: Entry CCNCC(O)CO[C@H]1CC[C@]2(C)[C@H]3CC=C4[C@@H]5CC(C)(C)CC[C@]5(C(=O)O)CC[C@@]4(C)[C@]3(C)CC[C@H]2C1(C)C (stereo partly drawn) : reported MIC = ?
Response: > 64 µg/mL

Prompt: Next: `CCCOC(=O)[C@]12CCC(C)(C)C[C@H]1C1=CC[C@@H]3[C@@]4(C)CC[C@H](O)C(C)(C)[C@@H]4CC[C@@]3(C)[C@]1(C)CC2`
Response: > 64 µg/mL

Prompt: Next: `CC(=O)O[C@H]1CC[C@]2(C)[C@H]3CC=C4[C@@H]5CC(C)(C)CC[C@]5(C(=O)N(C)C)CC[C@@]4(C)[C@]3(C)CC[C@H]2C1(C)C`
Response: > 64 µg/mL

----------
System: Staphylococcus aureus
Test description: Antimicrobial activity against Staphylococcus aureus 31
Assay type: functional
For each of the molecules below, state its MIC.

Prompt: Entry CC1(C)S[C@@H]2[C@H](NC(=O)[C@H](N)c3ccccc3)C(=O)N2[C@H]1C(=O)O [AMPICILLIN] : reported MIC = ?
Response: 2 µg/mL

Prompt: Next: `CC(=O)O[C@H]1CC[C@]2(C)[C@H]3CC=C4[C@@H]5CC(C)(C)CC[C@]5(C(=O)N5CCCCC5)CC[C@@]4(C)[C@]3(C)CC[C@H]2C1(C)C`
Response: > 64 µg/mL

Prompt: Next: `CC(=O)O[C@H]1CC[C@]2(C)[C@H]3CC=C4[C@@H]5CC(C)(C)CC[C@]5(C(=O)NCCc5ccccc5)CC[C@@]4(C)[C@]3(C)CC[C@H]2C1(C)C`
Response: > 64 µg/mL

Prompt: Next: CC1(C)CC[C@]2(C(=O)O)CC[C@]3(C)C(=CC[C@@H]4[C@@]5(C)CC[C@H](OCC(O)CCCNC(=N)N)C(C)(C)[C@@H]5CC[C@]43C)[C@@H]2C1 (some centres not stated)
Response: 2 µg/mL

Prompt: Next: CC1(C)CC[C@]2(C(=O)O)CC[C@]3(C)C(=CC[C@@H]4[C@@]5(C)CC[C@H](OCC(O)CN6CCCCC6)C(C)(C)[C@@H]5CC[C@]43C)[C@@H]2C1 (some centres not stated)
Response: > 64 µg/mL

Prompt: Next: `CCCCC(=O)O[C@H]1CC[C@]2(C)[C@H]3CC=C4[C@@H]5CC(C)(C)CC[C@]5(C(=O)O)CC[C@@]4(C)[C@]3(C)CC[C@H]2C1(C)C`
Response: > 64 µg/mL

Prompt: Next: `CCNC(=O)[C@]12CCC(C)(C)C[C@H]1C1=CC[C@@H]3[C@@]4(C)CC[C@H](OC(C)=O)C(C)(C)[C@@H]4CC[C@@]3(C)[C@]1(C)CC2`
Response: > 64 µg/mL
